assayed system: PKM2 (Homo sapiens, UniProt P14618)
Sequence (P14618 whole entry): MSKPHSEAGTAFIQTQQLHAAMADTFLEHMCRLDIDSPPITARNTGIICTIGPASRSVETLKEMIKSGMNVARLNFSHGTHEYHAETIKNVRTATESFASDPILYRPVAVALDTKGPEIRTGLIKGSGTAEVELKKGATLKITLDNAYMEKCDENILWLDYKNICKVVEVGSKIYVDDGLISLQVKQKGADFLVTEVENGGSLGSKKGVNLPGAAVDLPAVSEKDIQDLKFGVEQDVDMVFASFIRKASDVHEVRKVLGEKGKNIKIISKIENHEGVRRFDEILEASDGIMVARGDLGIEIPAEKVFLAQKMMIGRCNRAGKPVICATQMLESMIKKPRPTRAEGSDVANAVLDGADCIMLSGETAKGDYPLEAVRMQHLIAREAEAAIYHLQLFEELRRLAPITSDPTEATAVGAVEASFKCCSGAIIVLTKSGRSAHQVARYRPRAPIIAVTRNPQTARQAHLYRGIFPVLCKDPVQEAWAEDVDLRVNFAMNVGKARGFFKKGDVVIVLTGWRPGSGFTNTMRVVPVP
run description: PKM2 Assay (activation, LDH-coupled NADH absorbance at 340 nm)
Format: biochemical
particulars: activation of PKM2; PKM2 50 ng/well, ADP 0.7 mM, PEP 0.15 mM, room temperature (25° C.); read-out: AC50

>  <compound smiles>
Cc1cc(C(=O)N2CC(N(C)Cc3ccccc3)C2)ccc1NS(=O)(=O)c1cccc2cccnc12

>  <AC50>
0.1 to 1 µM

$$$$
>  <compound smiles>
O=C(c1ccc(NS(=O)(=O)c2cccc3cccnc23)cc1)N1CC(=Cc2ccccc2)C1

>  <AC50>
0.1 to 1 µM

$$$$
>  <compound smiles>
Cc1cc(C(=O)N2CC(Nc3ccccn3)C2)ccc1NS(=O)(=O)c1cccc2cccnc12

>  <AC50>
< 0.1 µM

$$$$
>  <compound smiles>
COc1ccccc1NC1CN(C(=O)c2ccc(S(=O)(=O)Nc3cccc4cccnc34)cc2)C1

>  <AC50>
> 10 µM

$$$$
>  <compound smiles>
COc1cc(NS(=O)(=O)c2cccc3cccnc23)ccc1C(=O)N1CC(O)(c2ccccc2)C1

>  <AC50>
< 0.1 µM

$$$$
>  <compound smiles>
Cc1cc(C(=O)N2CC(NC(=O)c3ccccn3)C2)ccc1NS(=O)(=O)c1cccc2cccnc12

>  <AC50>
0.1 to 1 µM

$$$$
>  <compound smiles>
COC1(Cc2ccccc2)CN(C(=O)c2ccc(NS(=O)(=O)c3cccc4cccnc34)cc2)C1

>  <AC50>
0.1 to 1 µM

$$$$
>  <compound smiles>
COc1ccccc1NC1CN(C(=O)c2ccc(NS(=O)(=O)c3cccc4cccnc34)c(C)c2)C1

>  <AC50>
< 0.1 µM

$$$$
>  <compound smiles>
COc1cc(C(=O)N2CC(OC(=O)Nc3ccccn3)C2)ccc1NS(=O)(=O)c1cccc2cccnc12

>  <AC50>
0.1 to 1 µM

$$$$
>  <compound smiles>
Cc1cc(C(=O)N2CC(OC(=O)c3ccccn3)C2)ccc1NS(=O)(=O)c1cccc2cccnc12

>  <AC50>
0.1 to 1 µM

$$$$
>  <compound smiles>
C=CCNC(=O)NC1CN(C(=O)c2ccc(NS(=O)(=O)c3cccc4cccnc34)c(OC)c2)C1

>  <AC50>
1 to 10 µM

$$$$
>  <compound smiles>
O=C(c1ccc(NS(=O)(=O)c2cccc3cccnc23)cc1)N1CC(Oc2ccccc2)C1

>  <AC50>
0.1 to 1 µM

$$$$
>  <compound smiles>
Cc1cc(C(=O)N2CC(NC(=O)NC(C)C)C2)ccc1NS(=O)(=O)c1cccc2cccnc12

>  <AC50>
0.1 to 1 µM

$$$$
>  <compound smiles>
O=C(c1ccc(NS(=O)(=O)c2cccc3cccnc23)cc1)N1CC(NCc2ccccc2)C1

>  <AC50>
0.1 to 1 µM

$$$$
>  <compound smiles>
COc1ccncc1NC1CN(C(=O)c2ccc(NS(=O)(=O)c3cccc4cccnc34)c(C)c2)C1

>  <AC50>
0.1 to 1 µM

$$$$
>  <compound smiles>
O=C(c1ccc(S(=O)(=O)Nc2cccc3cccnc23)cc1)N1CC(OCc2ccccc2)C1

>  <AC50>
1 to 10 µM

$$$$
>  <compound smiles>
COc1cc(NS(=O)(=O)c2cccc3cccnc23)ccc1C(=O)N1CC(OC(=O)NC(C)C)C1

>  <AC50>
0.1 to 1 µM

$$$$
>  <compound smiles>
COc1cc(NS(=O)(=O)c2cccc3cccnc23)ccc1C(=O)N1CC(O)(Cc2ccccc2)C1

>  <AC50>
< 0.1 µM

$$$$
>  <compound smiles>
COc1cc(NS(=O)(=O)c2cccc3cccnc23)ccc1C(=O)N1CC(C)(O)C1

>  <AC50>
1 to 10 µM

$$$$
>  <compound smiles>
Cc1cc(C(=O)N2CC(O)C2)ccc1NS(=O)(=O)c1cccc2cccnc12

>  <AC50>
1 to 10 µM

$$$$
>  <compound smiles>
O=C(Nc1ccccn1)OC1CN(C(=O)c2ccc(NS(=O)(=O)c3cccc4cccnc34)c(F)c2)C1

>  <AC50>
> 10 µM

$$$$
>  <compound smiles>
O=C(c1ccc(NS(=O)(=O)c2cccc3cccnc23)cc1)N1CC(O)C1

>  <AC50>
> 10 µM

$$$$
>  <compound smiles>
O=C(OC1CN(C(=O)c2ccc(NS(=O)(=O)c3cccc4cccnc34)cc2)C1)c1ccccn1

>  <AC50>
1 to 10 µM

$$$$
>  <compound smiles>
CC1(O)CN(C(=O)c2ccc(NS(=O)(=O)c3cccc4cccnc34)cc2)C1

>  <AC50>
> 10 µM

$$$$
>  <compound smiles>
O=C(c1ccc(NS(=O)(=O)c2cccc3cccnc23)cc1)N1CC(O)(c2ccccc2)C1

>  <AC50>
0.1 to 1 µM

$$$$
